Attribution: a melting point compilation (Tetko et al.)

# melting point per entry

>>> df
                      input_smiles  property_label       observed
0  CCCCc1ccc(/N=N/c2ccc(OC)cc2)cc1   melting point    31 to 48 °C
1   N#CC(C#N)=c1ccc(=C(C#N)C#N)cc1   melting point  287 to 289 °C
2               O=Nc1ccc2ccccc2c1O   melting point  156 to 158 °C
3              FC(F)(F)COCC(F)(F)F   melting point        < 25 °C

For the next question, use this compound.
Q) Check the records and state melting point for "O=C(O)c1cscc1S(=O)(=O)c1ccc(Cl)cc1"
A) 214 to 216 °C

---

Property label: melting point

As a guide, the following entries are already answered.
>>> df
               input_smiles       observed
0    CCCCCCc1ccc(C(=O)O)cc1    94 to 99 °C
1  c1ccc(-c2cc3ccccn3c2)cc1  211 to 214 °C

For the next question, use this compound.
Q) Check the records and state melting point for "O=C1CCN(C(=O)c2ccccc2)CC1"
A) 56 to 59 °C

---

# melting point per entry

In [3]: df
Out[3]:
                input_smiles  property_label       observed
0  O=Cc1c[nH]nc1-c1ccc(F)cc1   melting point  160 to 164 °C

Q) Check the records and state melting point for "N#Cc1c(F)cccc1OCc1ccc(Cl)cc1"
A) 146 to 148 °C

Q) Check the records and state melting point for "COC(=O)c1cc2ccccc2[nH]1"
A) 151 to 153 °C

---

# melting point per entry

In [3]: df
Out[3]:
                                   compound       observed
0                       Oc1ccc(-n2ccnc2)cc1  204 to 206 °C
1  O=C(O)C(O)(c1ccccc1)C1CCCCC1 (stereo unspecified)  163 to 164 °C
2  Cc1cc([N+]([O-])=Nc2ccccc2)ccc1N=Nc1ccccc1         103 °C
3            CC(C)(C)OC(=O)N1CCC(C(N)=S)CC1  130 to 131 °C
4         O=C(O)c1ccc(Cc2ccc(C(=O)O)cc2)cc1  346 to 350 °C

For the next question, use this compound.
Q) Check the records and state melting point for "Cn1ccc(-c2ccc(N=C=O)cc2)n1"
A) 67 to 70 °C

---

Property label: melting point (°C)
Note: unit °C is implicit; provide only the numeric part.

Q) Check the records and state melting point for "C=CCCCCCCCCC(=O)OC"
A) -27.5

Q) Check the records and state melting point for "Cc1ccc(S(=O)(=O)O)c(C)c1"
A) 57

---

Property label: melting point (°C)
Note: unit °C is implicit; provide only the numeric part.

>>> df
                                   molecule  result_units  observed
0                 O=[N+]([O-])c1cc(F)ccc1Cl            °C        38
1  CN(C)c1ccc(C(O)(c2ccccc2)c2ccc(N(C)C)cc2)cc1            °C       113
2                  CN(C)[Si](C)(N(C)C)N(C)C            °C       -11
3                                Cc1cccnc1C            °C       -17

Q) Check the records and state melting point for "Nc1c(Br)cc(Br)cc1C(=O)c1ccccc1"
A) 98

---

# melting point per entry

In [3]: df
Out[3]:
                         molecule       observed
0  CCOC(=O)c1nc(-c2cncc(Br)c2)no1  101 to 103 °C
1                 CSc1nc(N)n[nH]1  130 to 133 °C
2      CCOC(=O)c1csc(NC(=O)CCl)n1  208 to 210 °C

Q) Check the records and state melting point for "CCCc1ccc(C(C)=NO)cc1"
A) 48 to 50 °C

Q) Check the records and state melting point for N#C[C@@H]1CCCC[C@H]1O (relative stereo)
A) 46 to 49 °C

Q) Check the records and state melting point for "CC(C)CCOC(=O)C=Cc1ccc(C=CC(=O)OCCC(C)C)c([N+](=O)[O-])c1"
A) 93 to 94 °C

Q) Check the records and state melting point for "O=C(O)c1ccnc(N2CCCC2)c1"
A) 211 to 212 °C

---

# melting point per entry

As a guide, the following entries are already answered.
                               input_smiles       observed
0       O=C(O)C(c1ccccc1)(c1ccccc1)c1ccccc1  268 to 269 °C
1  O=c1[nH]c2scc(-c3ccccc3)c2c(=O)n1-c1cccc(C(F)(F)F)c1  231 to 233 °C
2         O=C(N=NC(=O)OCc1ccccc1)OCc1ccccc1    44 to 52 °C

For the next question, use this molecule.
Q) Check the records and state melting point for "O=C(Nc1ccc(I)cc1)C(C(F)(F)F)C(F)(F)F"
A) 235 to 237 °C

---

Property label: melting point

As a guide, the following entries are already answered.
>>> print(df.to_string())
                      input_smiles       observed
0        COC(=O)c1ccc(N2CCCCC2)nc1    70 to 72 °C
1                   Cn1cncc1C(=O)O  247 to 248 °C
2  O=C(c1cc2ccccc2o1)c1cc2ccccc2o1  174 to 175 °C

Q) Check the records and state melting point for "CCCCCCCOc1ccc(N=[N+]([O-])c2ccc(OCCCCCCC)cc2)cc1"
A) 73 to 122 °C

---

# melting point per entry

As a guide, the following entries are already answered.
In [3]: df
Out[3]:
                                   compound       observed
0  OC(c1ccccc1)(c1ccccc1)C(O)(c1ccccc1)c1ccccc1  184 to 186 °C
1  Cc1sc(C2CCN(C(=O)OC(C)(C)C)CC2)nc1CC(=O)O    48 to 50 °C
2                CC(=O)c1ccc(S(C)(=O)=O)cc1  129 to 131 °C
3  CC(C)(C)C(N)P(=O)(O)O (stereo not drawn)  245 to 252 °C

Q) Check the records and state melting point for "O=C(Cl)c1ccc(-c2nccs2)cc1"
A) 122 to 123 °C

Q) Check the records and state melting point for "CC(=O)c1cc(Br)c(O)c(Br)c1"
A) 174 to 183 °C

Q) Check the records and state melting point for "Cc1nc(-c2cccc(S(=O)(=O)Cl)c2)cs1"
A) 116 to 118 °C

Q) Check the records and state melting point for "O=Cc1ccc(F)c(C(=O)O)c1"
A) 175 to 178 °C

Q) Check the records and state melting point for "O=c1[nH]cc(C(F)(F)F)cc1[N+](=O)[O-]"
A) 189 to 190 °C

Q) Check the records and state melting point for "CCOC=C(C#N)S(=O)(=O)Cc1ccco1"
A) 98 to 100 °C

Q) Check the records and state melting point for "Cc1[nH]c2ccc(C(=O)O)cc2c1C"
A) 239 to 242 °C

Q) Check the records and state melting point for "Cc1ccc(Sc2ncccc2C(=O)O)cc1"
A) 218 to 221 °C

Q) Check the records and state melting point for COc1ccc(C2CNC(=O)C2)cc1OC1CCCC1 (stereo not drawn)
A) 127 to 133 °C

---

Property label: melting point

In [3]: df
Out[3]:
                                   molecule  property_label       observed
0                 COc1ccccc1C(C)O (racemic)   melting point    37 to 39 °C
1  C=C(C)C1CC=C(C)C(=NO)C1 (stereo unspecified)   melting point        71.5 °C
2   O=Cc1cccn1S(=O)(=O)c1ccccc1[N+](=O)[O-]   melting point  139 to 141 °C

Q) Check the records and state melting point for "COc1ccc(OC)c(S(=O)(=O)Cl)c1"
A) 115 to 116 °C

Q) Check the records and state melting point for "C1CCN(C2CCNCC2)C1"
A) 52 to 57 °C

Q) Check the records and state melting point for "c1ccc2sc(Cc3nc4ccccc4s3)nc2c1"
A) 92 to 96 °C

---

Property label: melting point

>>> print(df.to_string())
             input_smiles       observed
0     NC(=O)c1ccc(F)cc1Cl  152 to 154 °C
1  O=C(Cl)c1ccc2c(c1)CCO2    49 to 51 °C

Q) Check the records and state melting point for "Cc1ccc(-c2ccc(S(=O)(=O)Cl)cc2)cc1"
A) 107 to 108 °C
